Data origin, for the record: patent WO2024019110A1

Molecular target: Delta strain RBD, biotinylated (SARS-CoV-2 (Delta strain), UniProt P0DTC2 331-529)
Experiment: BLI (Octet), biotinylated RBD on streptavidin biosensor, Fab in solution
RESULT TYPE: Kd

recombinant Fab protein of antibody No. 2 (Fab, V domains shown) VH: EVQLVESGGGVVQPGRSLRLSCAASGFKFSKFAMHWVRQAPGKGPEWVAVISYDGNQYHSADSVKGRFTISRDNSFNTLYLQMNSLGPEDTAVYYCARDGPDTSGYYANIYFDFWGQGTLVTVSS VL: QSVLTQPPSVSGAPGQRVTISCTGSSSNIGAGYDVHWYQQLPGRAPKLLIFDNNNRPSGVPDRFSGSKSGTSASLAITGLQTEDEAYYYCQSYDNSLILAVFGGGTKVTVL ... ≤ 0.1 µM
recombinant Fab protein of antibody No. 7 (Fab, V domains shown) VH: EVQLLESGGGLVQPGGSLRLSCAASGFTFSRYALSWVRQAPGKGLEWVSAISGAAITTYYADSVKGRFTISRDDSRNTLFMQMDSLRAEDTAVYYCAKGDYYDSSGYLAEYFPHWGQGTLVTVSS VL: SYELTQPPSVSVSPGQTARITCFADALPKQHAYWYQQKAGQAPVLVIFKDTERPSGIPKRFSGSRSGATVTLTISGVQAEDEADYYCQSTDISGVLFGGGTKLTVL ... ≤ 0.1 µM
recombinant Fab protein of antibody No. 6 (Fab, V domains shown) VH: QVQLVQSGPEVKKPGTSVKVSCKASGFTFYYSAVQWVRQARGQRLEWLGWMAVGSGKANYAQKFQERLTLTRDMSTSTAYMELSSLRSEDTAVYYCAAPNCTGGSCYDGFNLWGQGTVVTVSS VL: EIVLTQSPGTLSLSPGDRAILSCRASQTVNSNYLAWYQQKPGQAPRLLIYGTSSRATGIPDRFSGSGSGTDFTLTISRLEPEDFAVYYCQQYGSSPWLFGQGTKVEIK ... ≤ 0.1 µM
